Hey, just so you know, these numbers are from ChEMBL document CHEMBL6153034.

Record form. Attribute: viability at 1 µM. Fill in for each entry.
experiment: Cytotoxicity against mouse BV-2 cells assessed as cell viability at 1 uM by MTT assay relative to control; format: toxicity, cell-based; details: read-out: Activity
The response must be a number in % with no trailing unit.

Lookup: Find the recorded viability at 1 µM belonging to `CCc1ccccc1-n1cc(-c2cccc(NC(=O)c3cn4c(c(OC)c3=O)C(=O)N3[C@H](C)CCO[C@H]3C4)c2)nn1` and report it.
Found: 101

Lookup: Find the recorded viability at 1 µM belonging to `COc1c2n(cc(C(=O)Nc3cccc(-c4cn(-c5ccccc5)nn4)c3)c1=O)C[C@@H]1OCC[C@@H](C)N1C2=O` and report it.
Found: 104

Lookup: Find the recorded viability at 1 µM belonging to `COc1c2n(cc(C(=O)Nc3cccc(-c4cn(-c5c(C)cc(C)cc5C)nn4)c3)c1=O)C[C@@H]1OCC[C@@H](C)N1C2=O` and report it.
Found: 102

Lookup: Find the recorded viability at 1 µM belonging to `COc1c2n(cc(C(=O)Nc3cccc(-c4cn(-c5ccccc5Cl)nn4)c3)c1=O)C[C@H]1OC[C@H](C)N1C2=O` and report it.
Found: 90.7

Lookup: Find the recorded viability at 1 µM belonging to `COc1ccccc1-n1cc(-c2ccc(NC(=O)c3cn4c(c(OC)c3=O)C(=O)N3[C@H](C)CCO[C@H]3C4)cc2)nn1` and report it.
Found: 108

Lookup: Find the recorded viability at 1 µM belonging to `COc1c2n(cc(C(=O)Nc3ccc(-c4cn(-c5ccccc5F)nn4)cc3)c1=O)C[C@@H]1OCC[C@@H](C)N1C2=O` and report it.
Found: 101

Lookup: Find the recorded viability at 1 µM belonging to `COc1c2n(cc(C(=O)Nc3ccc(-c4cn(-c5ccccc5Cl)nn4)cc3)c1=O)C[C@@H]1OCC[C@@H](C)N1C2=O` and report it.
Found: 100

Lookup: Find the recorded viability at 1 µM belonging to `COc1ccccc1-n1cc(-c2cccc(NC(=O)c3cn4c(c(OC)c3=O)C(=O)N3[C@H](C)CCO[C@H]3C4)c2)nn1` and report it.
Found: 109

Lookup: Find the recorded viability at 1 µM belonging to `COc1c2n(cc(C(=O)Nc3ccc(-c4cn(-c5cc(C(F)(F)F)ccc5C(F)(F)F)nn4)cc3)c1=O)C[C@@H]1OCC[C@@H](C)N1C2=O` and report it.
Found: 108

Lookup: Find the recorded viability at 1 µM belonging to `CCc1ccccc1-n1cc(-c2ccccc2NC(=O)c2cn3c(c(OC)c2=O)C(=O)N2[C@H](C)CCO[C@H]2C3)nn1` and report it.
Found: 111

Lookup: Find the recorded viability at 1 µM belonging to `COc1c2n(cc(C(=O)Nc3ccccc3-c3cn(-c4ccccc4F)nn3)c1=O)C[C@@H]1OCC[C@@H](C)N1C2=O` and report it.
Found: 100

Lookup: Find the recorded viability at 1 µM belonging to `COc1c2n(cc(C(=O)Nc3cccc(-c4cn(-c5ccc(F)cc5)nn4)c3)c1=O)C[C@@H]1OCC[C@@H](C)N1C2=O` and report it.
Found: 111

Lookup: Find the recorded viability at 1 µM belonging to `COc1c2n(cc(C(=O)Nc3cccc(-c4cn(-c5ccc(C(F)(F)F)cc5)nn4)c3)c1=O)C[C@H]1OC[C@H](C)N1C2=O` and report it.
Found: 108

Lookup: Find the recorded viability at 1 µM belonging to `C[C@@H]1CCO[C@H]2Cn3cc(C(=O)NCc4ccc(F)cc4F)c(=O)c(O)c3C(=O)N12` and report it.
Found: 97.5
